Each entry below carries its recorded combination Emax.
System: ES6 (Ewing's Sarcoma)
Assay: combination Emax (second highest fraction inhibited in the dose matrix, 72 h); higher = more inhibition; extreme values may be limits of the assay
Reply briefly: the number, and no unit.

Sample records with combination Emax:
INSERT INTO results (compound, reading) VALUES
  ('Cn1cnc2c(F)c(Nc3ccc(Br)cc3Cl)c(C(=O)NOCCO)cc21 [Selumetinib] + C=CCn1c(=O)c2cnc(Nc3ccc(N4CCN(C)CC4)cc3)nc2n1-c1cccc(C(C)(C)O)n1 [AZD1775] (first compound max 10 µM, partner max 1 µM)', 0.233),
  ('CCc1c2c(nc3ccc(O)cc13)-c1cc3c(c(=O)n1C2)COC(=O)[C@]3(O)CC [SN-38] + O=C(c1cc(Cc2n[nH]c(=O)c3ccccc23)ccc1F)N1CCN(C(=O)C2CC2)CC1 [Olaparib] (first compound max 0.3 µM, 7x7, partner max 10 µM)', 0.618),
  ('C=CCn1c(=O)c2cnc(Nc3ccc(N4CCN(C)CC4)cc3)nc2n1-c1cccc(C(C)(C)O)n1 [AZD1775] + C1CN(CCC1(C(=O)N[C@@H](CCO)C2=CC=C(C=C2)Cl)N)C3=NC=NC4=C3C=CN4 [Capivasertib] (first compound max 3 µM, partner max 3 µM)', 0.472);

We next turn to a different compound, shown below.
Query: Please respond with reported combination Emax (system ES6 (Ewing's Sarcoma)) for Cc1c2c(nn1C)CSCc1cc(n(C)n1)CSc1cc(c3ccccc3c1)OCCCc1c(C(=O)O)n(C)c3c-2c(Cl)ccc13 [AZD5991] + CC(=O)O[C@H]1C(=O)[C@@]2(C)[C@H]([C@H](OC(=O)c3ccccc3)[C@]3(O)C[C@H](OC(=O)[C@H](O)[C@@H](NC(=O)c4ccccc4)c4ccccc4)C(C)=C1C3(C)C)[C@]1(OC(C)=O)CO[C@@H]1C[C@@H]2O [Paclitaxel] (first compound max 1 µM, 7x7, partner max 3 µM) .
Reply: 0.312
